Ref: paper PMC4169570

measuredOn: T1, HMGE A32V (Pantoea stewartii subsp. stewartii, UniProt P54293 1-249, A32V)
T1 sequence: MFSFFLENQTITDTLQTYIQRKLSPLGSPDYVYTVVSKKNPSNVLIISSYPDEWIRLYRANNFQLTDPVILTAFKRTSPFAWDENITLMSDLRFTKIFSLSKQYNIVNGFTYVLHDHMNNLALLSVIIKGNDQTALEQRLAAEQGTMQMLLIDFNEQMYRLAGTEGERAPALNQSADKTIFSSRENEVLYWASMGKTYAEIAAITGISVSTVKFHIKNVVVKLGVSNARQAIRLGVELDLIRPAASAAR
measurementProtocol: fluorescence anisotropy; 1 uM AHL; 150 mM NaCl, 6 mM HEPES, 17.5 mM Tris, 3% glycerol, pH 7.6, 25 C, 20 min; 3 nM T-esabox, 0-100 nM protein
testConditions: protein: recombinant; tags: N-terminal His6-MBP-TEV-Gly5; chain copies: 2; label: 5' TAMRA on strand 1; blunt
property: pKd
Numbers only, as −log10 of the molar value.

Query: Tell me pKd reported for T-esabox (PesaR28 TAMRA/PesaR28R) (dsDNA) DNA 1: TCTTGCCTGTACTATAGTGCAGGTTAAG DNA 2: CTTAACCTGCACTATAGTACAGGCAAGA
Reply: 8.63
